Each recorded value in this set is attributed to ChEMBL document CHEMBL3399921.

# protocolDetails: Selectivity ratio of IC50 for mouse B16F10 cells to MIC for Mycobacterium tuberculosis Spec. 192
# Format: ADME, cell-based, B16-F10

# itemSmiles, selectivity ratio
records = [
    ("Nc1c(NC(=O)CCc2cc(Cl)cc(Cl)c2)cc(Cl)cc1[N+](=O)[O-]", 7.5),
    ("Cc1cc2nc(CCc3cc(Cl)cc(Cl)c3)[nH]c2cc1C", 6),
]

---

# protocolDetails: Selectivity ratio of IC50 for mouse B16F10 cells to MIC for Mycobacterium tuberculosis Spec. 210
# Assay type: ADME, cell-based, B16-F10
measuredProperty: selectivity ratio

# itemSmiles, resultValue
records = [
    ("Cc1cc2nc(CCc3cc(Cl)cc(Cl)c3)[nH]c2cc1C", 6),
]
